Source of measurements: PubChem BioAssay (NCI)

Tested on: MDA-MB-435
method-summary: NCI tumour cell line growth inhibition, 48 h
Returns true if the recorded TGI is greater than or equal to 30 µM, and false otherwise.

Please review the following examples before continuing.
CO/N=C(\COc1ccc2c(c1)[nH]c1ccccc12)c1ccc(F)cc1 :: true
NNC(=O)CS(=O)(=O)Nc1ncccn1 :: true
CC1=NNC(=O)C1C1CC(c2c[nH]c3ccccc23)=NNC1=O (configuration not stated) :: true

Determine whether measured TGI meets or exceeds 30 µM for `CCOC(=O)C1=NOC2(C=C(Br)C(=O)C(Br)=C2)C1` false

Determine whether measured TGI meets or exceeds 30 µM for `O=C1c2ccccc2-c2cc([N+](=O)[O-])c([N+](=O)[O-])cc21` false

Determine whether measured TGI meets or exceeds 30 µM for OCC12C3C4C5C3C1C5C42 (configuration not stated) true

Determine whether measured TGI meets or exceeds 30 µM for CCC(CCCN)Nc1cc(OC)cc2c(C)ccnc12 (configuration not stated) false

====

Test system: HCC-2998 colon
method-summary: NCI tumour cell line growth inhibition, 48 h
recorded-endpoint: TGI

C/C(=N\Nc1ccc([N+](=O)[O-])cc1[N+](=O)[O-])c1sc(-n2nc(-c3ccccc3)cc2-c2ccccc2)nc1C :: > 100 µM
CC1CC(C)C(C#N)N(C)c2ccccc21 (stereo unspecified) :: > 100 µM
O=[N+]([O-])c1ccc(C=Cc2ccccc2)cc1.[C-]#[O+].[C-]#[O+].[C-]#[O+].[Cr] :: > 100 µM

Please supply TGI for each of the following items, keeping them in order.
1. CC(=O)C(CN(CC(C)C)CC(C)C)C(c1ccccc1)c1c(O)c2ccccc2oc1=O (stereo unspecified)
2. O=C1CCCN1C(=O)CS(=O)(=O)c1ccccc1
3. CCOC(=O)/C(C=Nc1c(C)n(C)n(-c2ccccc2)c1=O)=C(/C)O

1. > 100 µM
2. > 100 µM
3. > 100 µM

====

System: HCT-15 colon
method-summary: NCI tumour cell line growth inhibition, 48 h
recorded-endpoint: TGI

Study these solved cases before continuing.
CC(C)(C)OC(=O)NC(Cc1ccccc1)OCc1ccccc1 (centres undefined) :: 36.1 µM
CC(=O)OC12C=C(C)C(C(C)C1)C1C(=O)N(CCN3CCOCC3)C(=O)C12 (centres undefined) :: > 100 µM
COc1cc2c(cc1OC)C1C=NC(C2)c2cc(OC)c(OC)cc21 (centres undefined) :: > 100 µM
COc1ccc(C=O)c([N+](=O)[O-])c1 :: > 100 µM
COc1cc2c(cc1OCCCn1c(-c3ccccn3)nc3ccccc31)N=C[C@@H]1CCCN1C2=O :: 9.92 µM
O=C(O)c1ccc(C2COc3ccc(Cl)cc3C2)cc1 (centres undefined) :: > 100 µM
CC1CC(C)C(C#N)N(C)c2ccccc21 (centres undefined) :: > 100 µM
CC1(C)C=Cc2c(cc(O)c3c(=O)c4cc(Cl)ccc4[nH]c23)O1 :: > 10 µM
C[C@@H]1CN(Cc2ccc(F)cc2)[C@@H](C)CN1C(=O)c1cc2c(C(=O)C(=O)N(C)C)cn(C)c2cc1Cl :: 47.3 µM
Clc1ccc(Nc2nc3ccccc3nc2-c2cccs2)cc1Cl :: > 100 µM

Please supply TGI for each of the following items, keeping them in order.
1. Cc1cc(S(=O)(=O)/N=C(/N)Nc2ccccc2O)c(SCc2ccccc2)cc1Cl
2. N#C[C@H](OC1OC(COC2OC(CO)C(O)C(O)C2O)C(O)C(O)C1O)c1ccccc1 (some centres undefined)
3. O=C1C=CC2(C=C1)O[C@H](Cc1ccccc1)[C@@H](Cc1ccccc1)O2

1. 28 µM
2. > 250 µM
3. 0.866 µM

Please supply TGI for each of the following items, keeping them in order.
1. CN(N=O)C(=O)ON1C(=O)CCC1=O
2. CCn1c2ccccc2c2ccc3c(c21)C(=O)C=CC3=O
3. COc1ccc2c(c1)N(CCO)C1=C(C(=O)OC1)C2c1cccc(F)c1 (centres undefined)
4. COC(=O)c1onc(-c2c(OC)cc(OC)cc2OC)c1C(=O)OC
5. CCCc1c(-c2ccccc2)[nH]c2ccccc2c1=O
6. O=c1[nH]cc(COCCCO)c(=O)[nH]1

> 100 µM
25.7 µM
> 50 µM
> 100 µM
> 100 µM
> 100 µM
